target: Aβ42-GFP (Homo sapiens); construct: a chimeric fusion of the human Aβ(1-42) peptide (Aβ42) with GFP; expressed in transfected cells; host or cells: E. coli BL21(DE3); assay: High-throughput sequencing of pSICLOPPS vectors isolated after bacterial sorting for enhanced Aβ42-GFP fluorescence; details: Table 4, hexapeptides; after second round of sorting
Please use y for Number of reads under 300 and n for everything else, ties included.

Use the examples below as a reference point.
TPLWFN [AβC6-40] = n
TPARFD [AβC6-78] = y

input: Take the substance TLDFFD [AβC6-63] and say whether its Number of reads is less than 300.
output: y

input: Does the reported Number of reads of the following substance sit strictly below 300? TLCWLN [AβC6-32]
output: n

input: Determine if TPPWFD [AβC6-44] shows Number of reads strictly lower than 300.
output: y

---

target: Aβ42-GFP (Homo sapiens, UniProt P05067); construct: a chimeric fusion of the human Aβ(1-42) peptide (Aβ42) with GFP; expressed in transfected cells; host or cells: E. coli BL21(DE3); assay: High-throughput sequencing of pSICLOPPS vectors isolated after bacterial sorting for enhanced Aβ42-GFP fluorescence; conditions: Table 4
Attribute Measured: Reads/Total peptide reads (%)
Numbers only, in %.

These recorded examples may help you get a feel for the data.
TVTWFD [AβC6-6] = 0.377
TPVWLD [AβC6-80] = 0.001
TLEYLW [AβC6-49] = 0.005
TCSWFD [AβC6-27] = 0.014
TLSWFN [AβC6-59] = 0.003

Each substance below has a recorded value; state its Reads/Total peptide reads (%).
1. TPALFD [AβC6-68]
2. TPALVD [AβC6-53]
3. TKEYFD [AβC6-21]
4. TLGWLD [AβC6-42]
5. TPIVFD [AβC6-36]
6. TIFWFD [AβC6-50]

output:
1: 0.002; 2: 0.005; 3: 0.027; 4: 0.007; 5: 0.008; 6: 0.005

Could you tell me Reads/Total peptide reads (%) for each of these substances? They are listed below.
1. TLDFFD [AβC6-63]
2. TLLIRW [AβC6-8]

output:
1. 0.003
2. 0.290

For every item below, please supply its Reads/Total peptide reads (%).
1. TLWVFD [AβC6-37]
2. TPGWFD [AβC6-55]
3. TLHWFE [AβC6-26]

output:
1. 0.008
2. 0.004
3. 0.014

---

molecular target: Aβ42-GFP (Homo sapiens, UniProt P05067); construct: a chimeric fusion of the human Aβ(1-42) peptide (Aβ42) with GFP; expressed in transfected cells; host or cells: E. coli BL21(DE3); test: High-throughput sequencing of pSICLOPPS vectors isolated after bacterial sorting for enhanced Aβ42-GFP fluorescence; conditions: Table 4, hexapeptides; after second round of sorting
What Number of reads was measured for each of the following?
Answers are plain numbers.

TSVEYE [AβC6-41] = 307

Here are 2 substances. What values of Number of reads were reported for them?
1. TLHWFE [AβC6-26]
2. TLSVFD [AβC6-57]

output:
[647, 176]

Can you give me Number of reads for all of these, one by one?
1. TPALVD [AβC6-53]
2. TIFWFD [AβC6-50]
3. TLWVFD [AβC6-37]
4. TPGLVD [AβC6-58]
5. TPGWFD [AβC6-55]

output:
208
227
355
142
180

Below are some substances; for each one, tell me its Number of reads.
1. TPAWSD [AβC6-69]
2. TPALFD [AβC6-68]
3. TLEYFM [AβC6-28]
4. TLEYLW [AβC6-49]

output:
[86, 101, 556, 233]

Return reported Number of reads values for all items listed beneath this line.
1. TPVWLD [AβC6-80]
2. TLSWFN [AβC6-59]
3. TPCWFD [AβC6-46]

output:
1: 55; 2: 141; 3: 252

input: Field request: Number of reads | item: TPAWLD [AβC6-79]
output: 55

---

molecular target: Aβ42-GFP (Homo sapiens); construct: a chimeric fusion of the human Aβ(1-42) peptide (Aβ42) with GFP; expressed in transfected cells; host or cells: E. coli BL21(DE3); assay: High-throughput sequencing of pSICLOPPS vectors isolated after bacterial sorting for enhanced Aβ42-GFP fluorescence; settings: Table 4
Reads/Total hexapeptide reads (%) of 0.04% or higher: Satisfied. Under 0.04%: Not satisfied.

// below: answered substances
TPCWFD [AβC6-46] = Satisfied
TPAWSD [AβC6-69] = Not satisfied

input: Could you tell me if the measured Reads/Total hexapeptide reads (%) of TIFWFD [AβC6-50] reaches 0.04% or more?
output: Satisfied

input: Threshold query (Reads/Total hexapeptide reads (%) >= 0.04%) on TLHWFE [AβC6-26]
output: Satisfied

input: Is Reads/Total hexapeptide reads (%) for TPAWLD [AβC6-79] at or above 0.04%?
output: Not satisfied

---

molecular target: Aβ42-GFP (Homo sapiens, UniProt P05067); construct: a chimeric fusion of the human Aβ(1-42) peptide (Aβ42) with GFP; expressed in transfected cells; host or cells: E. coli BL21(DE3); assay: High-throughput sequencing of pSICLOPPS vectors isolated after bacterial sorting for enhanced Aβ42-GFP fluorescence; conditions: Table 4
Attribute Measured: Reads/Total peptide reads (%)

Observe how each entry below is paired with its result.
TPVLVD [AβC6-48] = 0.005%
TPAWLD [AβC6-79] = 0.001%
TLKWLN [AβC6-10] = 0.243%
TPAWFD [AβC6-2] = 2.453%
TLSVFD [AβC6-57] = 0.004%

Give one value of Reads/Total peptide reads (%) per listed substance.
1. TPGLVD [AβC6-58]
2. TSVEYE [AβC6-41]
3. TLSWYD [AβC6-47]
4. TPSWFD [AβC6-65]
5. TPLWFN [AβC6-40]

output:
1. 0.003%
2. 0.007%
3. 0.005%
4. 0.002%
5. 0.007%

---

target: Aβ42-GFP (Homo sapiens); construct: a chimeric fusion of the human Aβ(1-42) peptide (Aβ42) with GFP; expressed in transfected cells; host or cells: E. coli BL21(DE3); assay: High-throughput sequencing of pSICLOPPS vectors isolated after bacterial sorting for enhanced Aβ42-GFP fluorescence; details: Table 4
Quick rule: Reads/Total hexapeptide reads (%) of at least 0.3% means fulfilled, below that means not fulfilled.

Would you please look over these solved cases?
TLSVFD [AβC6-57] = not fulfilled
TLKWLN [AβC6-10] = fulfilled
TPSWFD [AβC6-65] = not fulfilled

input: Tell me whether Reads/Total hexapeptide reads (%) is at least 0.3% here: TLSWFN [AβC6-59]
output: not fulfilled

input: Please indicate if the recorded Reads/Total hexapeptide reads (%) for TPIVFD [AβC6-36] meets or exceeds 0.3%.
output: not fulfilled

input: Test whether the substance TPAWFD [AβC6-2] records Reads/Total hexapeptide reads (%) of 0.3% or higher.
output: fulfilled

input: Could you tell me if the measured Reads/Total hexapeptide reads (%) of TPARFD [AβC6-78] reaches 0.3% or more?
output: not fulfilled

input: I'd appreciate it if you could say whether TLDFFD [AβC6-63] has Reads/Total hexapeptide reads (%) at least equal to 0.3%.
output: not fulfilled

input: Item TLWVFD [AβC6-37] with Reads/Total hexapeptide reads (%) of 0.3% or above?
output: not fulfilled

input: Hi, just wondering whether TPVWFD [AβC6-1] shows Reads/Total hexapeptide reads (%) of 0.3% or higher.
output: fulfilled

input: Evaluate TLEYFM [AβC6-28] : Reads/Total hexapeptide reads (%) at minimum 0.3%?
output: not fulfilled

input: Confirm if Reads/Total hexapeptide reads (%) reported for the substance TLSWYD [AβC6-47] is 0.3% or above.
output: not fulfilled

---

biological target: Aβ42-GFP (Homo sapiens, UniProt P05067); construct: a chimeric fusion of the human Aβ(1-42) peptide (Aβ42) with GFP; expressed in transfected cells; host or cells: E. coli BL21(DE3); assay: High-throughput sequencing of pSICLOPPS vectors isolated after bacterial sorting for enhanced Aβ42-GFP fluorescence; conditions: Table 4, hexapeptides; after second round of sorting
# label = Y if Number of reads < 400 else N

Answered examples (3):
TPVLVD [AβC6-48] = Y
TCSWFD [AβC6-27] = N
TPIVFD [AβC6-36] = Y

input: Number of reads strictly < 400 for this substance? TPSWFD [AβC6-65]
output: Y

input: Determine whether this substance shows Number of reads lower than 400 (ties excluded): TLSWYD [AβC6-47]
output: Y

---

biological target: Aβ42-GFP (Homo sapiens); construct: a chimeric fusion of the human Aβ(1-42) peptide (Aβ42) with GFP; expressed in transfected cells; host or cells: E. coli BL21(DE3); assay: High-throughput sequencing of pSICLOPPS vectors isolated after bacterial sorting for enhanced Aβ42-GFP fluorescence; conditions: Table 4, hexapeptides; after second round of sorting
Attribute Measured: Number of reads

Some substances with recorded Number of reads:
TLLIRW [AβC6-8] = 13,135
TKEYFD [AβC6-21] = 1,231
TLKWLN [AβC6-10] = 11,016

input: Give the measured Number of reads of TLGWLD [AβC6-42] .
output: 307
